All values here come from patent US20200407457A1.

- assay.target: TRAILR2 receptor on the surface of human tumor cells (human, UniProt O14763 56-440)
- assay.protocol: cell-based or functional assay
Let's look at some binders and their measured IC50, cytotoxic effect on Reh cells (CellTiter-Glo, 72 h).
Give the number; µg/mL is assumed, so skip it.

[[record]]
binder = "Zapadcine-3d (antibody, V domains shown, MMAE coupled through linker MC by thiol conventional coupling, non-cleavable; positions not given) VH: QVQLVQSGSELKKPGASVKVSCKASGYTFTDFSMNWVRQAPGQGLEWMGWINTETGEPTYADDFKGRFVFSLDTSVSTAYLQISSLKAEDTAVYYCARIDYWGQGTTVTVSS VL: DIVMTQSPLSLPVTPGEPASISCRSSQSLVHSNGNTYLHWYLQKPGQSPQLLIYKVSNRFSGVPDRFSGSGSGTDFTLKISRVEAEDVGVYYCFQSTHVPHTFGQGTKLEIKR"
display_unit = "µg/mL"
measured_number = 0.0242


Ask: Give its IC50, cytotoxic effect on Reh cells (CellTiter-Glo, 72 h) value. Item: Zapadcine-3b (antibody, V domains shown, MMAE coupled through linker PY-MAA by thiol bridge coupling, non-cleavable; positions not given) VH: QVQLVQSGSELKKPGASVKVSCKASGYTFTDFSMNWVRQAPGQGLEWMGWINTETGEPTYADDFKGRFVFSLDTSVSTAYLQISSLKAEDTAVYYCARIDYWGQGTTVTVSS VL: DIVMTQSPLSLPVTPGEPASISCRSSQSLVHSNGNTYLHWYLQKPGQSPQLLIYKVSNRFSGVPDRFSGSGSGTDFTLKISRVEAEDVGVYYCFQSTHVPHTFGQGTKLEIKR
Result: 0.196

Ask: Quick check: IC50, cytotoxic effect on Reh cells (CellTiter-Glo, 72 h) of Zapadcine-3a (antibody, V domains shown, MMAE coupled through linker PY-VC-PAB by thiol bridge coupling, cleavable; positions not given) VH: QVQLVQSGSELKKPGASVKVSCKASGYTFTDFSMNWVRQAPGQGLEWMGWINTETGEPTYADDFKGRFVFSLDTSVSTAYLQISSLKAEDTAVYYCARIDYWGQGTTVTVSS VL: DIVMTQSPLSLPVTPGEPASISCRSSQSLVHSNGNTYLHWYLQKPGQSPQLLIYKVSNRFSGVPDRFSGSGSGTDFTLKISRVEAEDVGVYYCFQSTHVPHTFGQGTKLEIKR ?
Result: 0.0159
